optical density values by entry
biological target: T1, biotinylated goat anti-human kappa light chain; assay: ELISA; positive control; further: test concentration or dose not given here
T1 construct: Positive control of the ELISA
Report the value in OD with no unit label.

Previously resolved entries follow.
371_D03 (antibody, V domains shown, VH/VL only) VH: EVQLLESGGGLVQPGGSLRLSCAASGFTFDSYGMNWVRQAPGKGLEWVANINYNGGYTSYADSVKGRFTISRDNSKNTLYLQMNSLRAEDTAVYYCARSATWHDTALDYWGQGTLVTVSS VL: DIQMTQSPSSLSASVGDRVTITCRASQSILTYVNWYQQKPGKAPKLVIYAATSLASGVPSRFSGSGSGTDFTLTISSLQPEDFATYYCQQSYNTPLTFGGGTKVEIK : 3.57
374_F04 (antibody, V domains shown, VH/VL only) VH: EVQLLESGGGLVQPGGSLRLSCAASGFTFSSYGMNWVRQAPGKGLEWVSGINYNSGYKSYADSVKGRFTISRDNSKNTLYLQMNSLRAEDTAVYYCARSANWHDTALDYWGQGTLVTVSS VL: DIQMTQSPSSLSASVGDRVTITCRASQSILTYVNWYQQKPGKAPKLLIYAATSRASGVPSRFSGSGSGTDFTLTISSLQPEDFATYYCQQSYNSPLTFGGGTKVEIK : 3.23

Lab note: next binder to report on.
// sample 374_H08 (antibody, V domains shown, VH/VL only) VH: EVQLLESGGGLVQPGGSLRLSCAASGFTFDSYSMNWVRQAPGKGLEWVSGINYNGGYTGYADSVKGRFTISRDNSKNTLYLQMNSLRAEDTAVYYCARSATWHDTHLDYWGQGTLVTVSS VL: DIQMTQSPSSLSASVGDRVTITCRASQSILSYLNWYQQKPGKAPKLLIYAATSLHSGVPSRFSGSGSGTDFTLTISSLQPEDFATYYCQQSYENPLTFGGGTKVEIK , its optical density was 3.09
